Origin of values: ChEMBL document CHEMBL1132437

# Test system: Enterococcus faecium
# ASSAY_NAME: In vitro antibacterial activity against gram-positive Enterococcus faecium ATCC 8043
# Assay type: functional
# APPLIED_CONDITIONS: Enterococcus faecium, ATCC 8043; read-out: MIC
PARAMETER_MEASURED: MIC (µg/mL)
Please reply with the bare figure in µg/mL and do not write the unit itself.

Prompt: Suppose we examine the compound Cc1c(N2CCC(CN)(C(F)(F)F)C2)c(F)cn2c(=O)c(C(=O)O)cc(C3CC3)c12 (centres undefined) ; what MIC value has been reported?
Completion: 0.2

Prompt: Request: Cc1c(N2CCC(CNCCF)C2)c(F)cn2c(=O)c(C(=O)O)cc(C3CC3)c12 (centres undefined)
Completion: 0.02

Prompt: Another compound to check: Cc1c(N2CC[C@H](C)[C@@H](N)C2)c(F)cn2c(=O)c(C(=O)O)cc(C3CC3)c12
Completion: 0.05

Prompt: // same read-out, input: Cc1c(N2CCC(N(C)C3CC3)C2)c(F)cn2c(=O)c(C(=O)O)cc(C3CC3)c12 (centres undefined)
Completion: 0.2

Prompt: And what about the compound Cc1c(N2C[C@H]3CNC[C@H]3C2)c(F)cn2c(=O)c(C(=O)O)cc(C3CC3)c12 ?
Completion: 0.1

Continuing:
Prompt: Return reported MIC; argument: Cc1c(N2CCCO2)c(F)cn2c(=O)c(C(=O)O)cc(C3CC3)c12
Completion: 3.1

Prompt: Now consider Cc1c(N2C[C@@H]3OCC[C@]3(CN)C2)c(F)cn2c(=O)c(C(=O)O)cc(C3CC3)c12 .
Completion: 0.05

Prompt: Next: Cc1c(N2C[C@H](N)[C@H](C3CC3)C2)c(F)cn2c(=O)c(C(=O)O)cc(C3CC3)c12
Completion: 0.1

Prompt: Next compound: Cc1c(N2CC[C@@H]3NCCC[C@@H]32)c(F)cn2c(=O)c(C(=O)O)cc(C3CC3)c12
Completion: 3.1

====

Overview of reported log10 of MIC across a group of compounds:
# Tested on: Enterococcus faecium
# ASSAY_NAME: In vitro antibacterial activity against gram-positive Enterococcus faecium ATCC 8043
# Type: functional
# APPLIED_CONDITIONS: Enterococcus faecium, ATCC 8043; read-out: MIC
// do not treat as linear: log10 of MIC, unit µg/mL

Below, 5 compounds whose answers are already recorded.
Prompt: Any idea what log10 of MIC came out for CCCN[C@H]1CCN(c2c(F)cn3c(=O)c(C(=O)O)cc(C4CC4)c3c2C)C1 on Enterococcus faecium?
Completion: -0.41

Prompt: # repeat for Cc1c(N2C[C@H]3CCNC[C@@H]3C2)c(F)cn2c(=O)c(C(=O)O)cc(C3CC3)c12
Completion: -0.70

Prompt: Now the compound Cc1c(N2CC[C@@H](C)[C@@H](N)C2)c(F)cn2c(=O)c(C(=O)O)cc(C3CC3)c12
Completion: -0.41

Prompt: Moving on to the next compound: Cc1c(N2C[C@@H]3CCN[C@@H]3C2)c(F)cn2c(=O)c(C(=O)O)cc(C3CC3)c12 (stereo in doubt; 3gg)
Completion: -1.30

Prompt: Input Cc1c(N2CC[C@H](NC3CC3)C2)c(F)cn2c(=O)c(C(=O)O)cc(C3CC3)c12
Completion: -0.70

Consider now this further compound.
Prompt: Give recorded log10 of MIC with Enterococcus faecium for the following compound: CN[C@H]1CCN(c2c(F)cn3c(=O)c(C(=O)O)cc(C4CC4)c3c2C)C1
Completion: -1.00

====

# Tested on: Pseudomonas aeruginosa
# ASSAY_NAME: In vivo efficacy against Pseudomonas aeruginosa 5007 in mouse protection test after subcutaneous administration
# Format: functional
# APPLIED_CONDITIONS: Pseudomonas aeruginosa, sc; read-out: ED50
PARAMETER_MEASURED: ED50

Solved cases (4 shown):
Prompt: Please report the recorded ED50 for Cc1c(N2CC[C@H](NCCF)C2)c(F)cn2c(=O)c(C(=O)O)cc(C3CC3)c12 .
Completion: > 32 mg/kg

Prompt: Another compound to check: Cc1c(N2C[C@H]3NCCO[C@@H]3C2)c(F)cn2c(=O)c(C(=O)O)cc(C3CC3)c12
Completion: > 32 mg/kg

Prompt: Next up: Cc1c(N2CCCC(NC3CC3)C2)c(F)cn2c(=O)c(C(=O)O)cc(C3CC3)c12 (stereo not given)
Completion: > 32 mg/kg

Prompt: Lookup O=C(O)c1cn(C2CC2)c2cc(N3CCNCC3)c(F)cc2c1=O [CIPROFLOXACIN]
Completion: 2.4 mg/kg

---
Prompt: So what does the record say about ED50 for Cc1c(N2CC[C@@H](C)[C@H](N)C2)c(F)cn2c(=O)c(C(=O)O)cc(C3CC3)c12 ?
Completion: 24.5 mg/kg

Prompt: Also need Cc1c(N2C[C@@H]3CCCC[C@]3(CN)C2)c(F)cn2c(=O)c(C(=O)O)cc(C3CC3)c12 , thanks.
Completion: > 32 mg/kg

Prompt: Now try Cc1c(N2CC[C@H](C)C(N)C2)c(F)cn2c(=O)c(C(=O)O)cc(C3CC3)c12 (single isomer, unassigned) .
Completion: > 32 mg/kg

Prompt: And what about the compound Cc1c(N2CC[C@@H](NCCF)C2)c(F)cn2c(=O)c(C(=O)O)cc(C3CC3)c12 ?
Completion: > 32 mg/kg

Prompt: Record: Cc1c(N2C[C@@H](N)[C@H](C3CC3)C2)c(F)cn2c(=O)c(C(=O)O)cc(C3CC3)c12 (stereo in doubt)
Completion: > 32 mg/kg

Prompt: Try this compound too: Cc1c(N2C[C@H](C3CC3)[C@@H](N)C2)c(F)cn2c(=O)c(C(=O)O)cc(C3CC3)c12
Completion: > 32 mg/kg

====

# Test system: Enterococcus faecium
# ASSAY_NAME: In vitro antibacterial activity against gram-positive Enterococcus faecium ATCC 8043
# Format: functional
# APPLIED_CONDITIONS: Enterococcus faecium, ATCC 8043; read-out: MIC
PARAMETER_MEASURED: log10(MIC) (log10 of the value in µg/mL)
Note the log scale: values are log10 of MIC expressed in µg/mL.

Prompt: What log10(MIC) value was documented for this compound, CCN[C@H]1CCN(c2c(F)cn3c(=O)c(C(=O)O)cc(C4CC4)c3c2C)C1 ?
Completion: -1.00

Prompt: Next up: Cc1c(N2CCC2)c(F)cn2c(=O)c(C(=O)O)cc(C3CC3)c12
Completion: -0.11

Prompt: Item: CN[C@@H]1CN(c2c(F)cn3c(=O)c(C(=O)O)cc(C4CC4)c3c2C)C[C@@H]1C
Completion: -1.00

Prompt: Try this compound too: Cc1c(N2CCCN2C)c(F)cn2c(=O)c(C(=O)O)cc(C3CC3)c12
Completion: -0.41

Prompt: Then this compound: Cc1c(N2CC[C@H](N)C2)c(F)cn2c(=O)c(C(=O)O)cc(C3CC3)c12 (stereo in doubt; 3i)
Completion: -1.70

***
Prompt: Could you share which log10(MIC) value was measured for Cc1c(N2CCCC(N)C2)c(F)cn2c(=O)c(C(=O)O)cc(C3CC3)c12 (centres undefined) ?
Completion: -1.30

Prompt: Subsequent entry: Cc1c(N2C[C@H](C)[C@@H](N)C2)c(F)cn2c(=O)c(C(=O)O)cc(C3CC3)c12
Completion: -0.70

Prompt: Now the compound Cc1c(N2C[C@H](C3CC3)[C@@H](N)C2)c(F)cn2c(=O)c(C(=O)O)cc(C3CC3)c12
Completion: -1.00

Prompt: Record: Cc1c(N2C[C@@H](N)[C@@H](C3CC3)C2)c(F)cn2c(=O)c(C(=O)O)cc(C3CC3)c12 (stereo in doubt; 3s)
Completion: -1.00

====

# Tested on: Staphylococcus aureus
# ASSAY_NAME: In vitro antibacterial activity against gram-positive Staphylococcus aureus 1775
# Assay type: functional
# APPLIED_CONDITIONS: Staphylococcus aureus; read-out: MIC
PARAMETER_MEASURED: MIC (µg/mL)
Give just the numeric value; µg/mL need not be written.

Previously resolved entries follow.
Prompt: Fill in the blank: the reported MIC of Cc1c(N2CC[C@@H]3NCCC[C@@H]32)c(F)cn2c(=O)c(C(=O)O)cc(C3CC3)c12 is ____.
Completion: 12.5

Prompt: Then Cc1c(N2CC[C@H](NC3CC3)C2)c(F)cn2c(=O)c(C(=O)O)cc(C3CC3)c12 ?
Completion: 0.39

Prompt: Do the same for Cc1c(N2CCC(CN)(C(F)(F)F)C2)c(F)cn2c(=O)c(C(=O)O)cc(C3CC3)c12 (centres undefined) please
Completion: 0.39

Moving on to the next molecule.
Prompt: Endpoint output: MIC of Cc1c(N2CCC2)c(F)cn2c(=O)c(C(=O)O)cc(C3CC3)c12 . Value?
Completion: 3.1
